# Assay System: TTR (Homo sapiens)
# Protocol Details: FITC-T4 TTR competitive binding assay
# Study Conditions: read-out: Ki
Catalogue of log10 of Ki values
Values below are the log10 of the recorded Ki, with µM as the unit.

Worked cases, answers included:
O=C(O)C(F)(F)C(F)(F)C(F)(F)C(F)(F)C(F)(F)C(F)(F)C(F)(F)C(F)(F)C(F)(F)F [PFDA, perfluorodecanoic acid]    0.57
O=C(O)C(F)(F)C(F)(F)C(F)(F)C(F)(F)C(F)(F)C(F)(F)C(F)(F)C(F)(F)C(F)(F)C(F)(F)F [PFUnDA, perfluoroundecanoic acid]    0.34
O=C(O)C(F)(F)C(F)(F)C(F)(F)C(F)(F)C(F)(F)F [PFHxA, perfluorohexanoic acid]    0.53

Exam item: Note log10 of Ki for the compound shown: O=S(=O)(O)C(F)(F)C(F)(F)C(F)(F)C(F)(F)C(F)(F)C(F)(F)C(F)(F)C(F)(F)F [PFOS, perfluorooctane sulfonic acid]
Marked response: -0.80

Exam item: Note log10 of Ki for the compound shown: CC(C)(c1cc(Br)c(O)c(Br)c1)c1cc(Br)c(O)c(Br)c1 [TBBPA, tetrabromo-bisphenol-A]
Marked response: -1.77

Exam item: Note log10 of Ki for the compound shown: O=C(O)C(F)(F)C(F)(F)C(F)(F)C(F)(F)C(F)(F)C(F)(F)C(F)(F)C(F)(F)F [PFNA, perfluorononanoic acid]
Marked response: -0.11
